Experiment: NCI Yeast Anticancer Drug Screen. Data for the rad50 strain (AID 155);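 further: 0% = growth of vehicle-only cultures of the same strain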
Conditions: S. cerevisiae rad50 strain growth inhibition; at 50.0 µM; stronger effect = higher value
About 79,000 compounds went through this panel and 15% of them were active in at least one assay; those are over-represented in the sample as a whole.
Reported metric: growth inhibition (%)
Report the value in % with no unit label.

Past entries and their recorded results:
{"columns": ["Compound", "Unit name", "Measured result"],
 "data": [
  ["O=C(O)c1cc(-c2ccccc2O)nc2ccccc12", "%", -19.5],
  ["CC(C)C(O)C(=O)C(O)C(C)C (stereo not given)", "%", -13.4],
  ["O=CN/C=C\\c1cc(O)ccc1O", "%", 3.1]
]}

Q) Need growth inhibition, item CCOC(=O)Cn1c2ccccc2c(=O)c2cc(C)c(C)c(C#N)c21
A) 13.4

Q) And the next one, CC(=O)CCCO ?
A) -1.6

Q) Now consider COc1ccc2nc3ccccc3c(NCCCN(C)C)c2c1 .
A) 33.7

Q) Check COc1ccc(C(=O)CCl)c(O)c1OC too.
A) -4.95
